# Test system: KRAS-G12D mutant cell line (A-427)
# run-description: Growth inhibition activity on KRAS-G12D mutant cell line (A-427), CellTiter-Glo 3D
# Type: cell-based
# stated-conditions: Homo sapiens, 72 h, A-427 cells, 3-day culture with compound, read-out: A427 CTX IC50
# Protocol: Test Example 2: A measurement test of growth inhibition activity on KRAS-G12D mutant cell line (A-427) (in vitro) A-427 cells (ATCC, Cat #: HTB-53), which are a KRAS-G12D mutant human lung cancer cell line, were suspended in a 10% fetal bovine serum-containing E-MEM medium (manufactured by Fujifilm Wako Pure Chemical Corporation). […] All wells were added with CellTiter-Glo 3D Reagent and mixed for 10 minutes. 30 minutes after mixing, luminescence was measured by a plate reader. […]
Criterion: IC50 strictly under 2000 nM. Met: 1 (yes). Not met: 0 (no).

1. CN(C)CC1(COc2nc(N3CC4CCC(C3)N4)c3ccc(-c4cc(O)cc5ccccc45)c(F)c3n2)CC1	1 (yes)
2. C#Cc1cccc2cc(O)cc(C(=O)N3Cc4nc(OCC5(CN6CCOCC6)CC5)nc(N5CC6CCC(C5)N6)c4C3)c12	0 (no)
3. CN(C)CC1(COc2nc3c(c(N4CC5CCC(C4)N5)n2)COC(c2cc(O)cc4cccc(Br)c24)C3)CC1 (centres unmarked)	0 (no)
4. C#Cc1cccc2cc(O)cc(C3Cc4nc(OCC5(CN6CCOCC6)CC5)nc(N5CC6CCC(C5)N6)c4CO3)c12 (centres unmarked)	1 (yes)
5. CN1CCC[C@H]1COc1nc(N2CC3CCC(C2)N3)c2ccc(-c3cc(O)cc4ccccc34)c(F)c2n1	0 (no)
6. C#Cc1cccc2cccc(C3CCc4c(nc(OCC5(CN(C)C)CC5)nc4N4CC5CCC(C4)N5)C3)c12 (centres unmarked)	1 (yes)
7. C=Cc1cccc2cc(O)cc(C(=O)N3Cc4nc(OCC5(CN6CCOCC6)CC5)nc(N5CC6CCC(C5)N6)c4C3)c12	0 (no)
8. Oc1cc(N2CCc3c(nc(OCC4(CN5CCOCC5)CC4)nc3N3CC4CCC(C3)N4)C2)c2c(Br)cccc2c1	1 (yes)
9. C=Cc1cccc2cc(O)cc(C(=O)N3Cc4nc(OCC5(CN6CC[C@@H](F)C6)CC5)nc(N5CC6CCC(C5)N6)c4C3)c12	0 (no)
10. Cc1cccc2cc(O)cc(N3CCc4c(nc(OCC5(CN(C)C)CC5)nc4N4CC5CCC(C4)N5)C3)c12	1 (yes)
11. C#Cc1cccc2cc(N)nc(N3CCc4c(nc(OCC5(CN(C)C)CC5)nc4N4CC5CCC(C4)N5)C3)c12	0 (no)
12. CN(C)CC1(COc2nc3c(c(N4CC5CCC(C4)N5)n2)CCN(c2cc(O)cc4cccc(Br)c24)C3)CC1(C)C (centres unmarked)	1 (yes)
13. C#Cc1cccc2cc(O)cc(C(=O)N3Cc4nc(OCC5(CN6CC[C@@H](F)C6)CC5)nc(N5CC6CCC(C5)N6)c4C3)c12	0 (no)

----------
# system-under-test: KRAS G12D (Homo sapiens (Human), UniProt P01116, G12D)
# Sequence (P01116 other isoform, or with tags, fused parts or gaps G12D (already in the parent)): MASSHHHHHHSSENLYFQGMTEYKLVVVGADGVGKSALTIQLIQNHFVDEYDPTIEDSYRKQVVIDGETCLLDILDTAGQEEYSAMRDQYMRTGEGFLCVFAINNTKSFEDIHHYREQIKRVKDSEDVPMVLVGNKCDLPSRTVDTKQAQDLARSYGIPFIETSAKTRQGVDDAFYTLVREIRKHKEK
# run-description: Inhibitory activity on KRAS G12D nucleotide (GDP-GTP) exchange reaction in vitro (SOS1-dependent, BODIPY FL GDP)
# Type: biochemical
# stated-conditions: BODIPY FL GDP-bound KRAS G12D, compound 25° C. 1 hour, then SOS1 and GMPPNP 30 minutes
pIC50: −log10 of the molar value.
Recorded measurements of pIC50, one per entry
attribute-measured: pIC50

1) CN1CCC[C@H]1COc1nc2c(c(N3CC4CCC(C3)N4)n1)CCN(c1cc(O)cc3cccc(Br)c13)C2 [Example 31]	7.75
2) CN(C)CC1(COc2nc(N3CC4CCC(C3)N4)c3ccc(-c4cc(O)cc5ccccc45)c(F)c3n2)CC1 [Example 15]	8.33
3) CN(C)[C@@H]1CC[C@@H]1COc1nc(N2CC3CCC(C2)N3)c2ccc(-c3cc(O)cc4ccccc34)c(F)c2n1 (relative stereo) [Example 17]	7.84
4) C=Cc1cccc2cc(O)cc(C(=O)N3Cc4nc(OCC5(CN6CC[C@@H](F)C6)CC5)nc(N5CC6CCC(C5)N6)c4C3)c12 [Example 34]	7.85
5) C#Cc1cccc2cccc(C3CCc4c(nc(OCC5(CN(C)C)CC5)nc4N4CC5CCC(C4)N5)C3)c12 (centres unmarked) [Example 24]	7.77
6) CN(C)CC1(COc2nc3c(c(N4CC5CCC(C4)N5)n2)CCN(c2cccc4cccc(Br)c24)C3)CC1(F)F (centres unmarked) [Example 29]	7.42
7) Cc1cccc2cc(O)cc(N3CCc4c(nc(OCC5(CN(C)C)CC5)nc4N4CC5CCC(C4)N5)C3)c12 [Example 4]	8.82
8) Cc1cccc2cc(O)cc(N3CCc4c(nc(OCC5(CN6CCOCC6)CC5)nc4N4CC5CCC(C4)N5)C3)c12 [Example 6]	8.49
9) CCc1cc2c(N3CC4CCC(C3)N4)nc(OCC3(CN(C)C)CC3)nc2c(F)c1-c1cc(O)cc2ccccc12 [Example 19]	8.15
10) CN(C)CC1(COc2nc3c(c(N4C[C@@H]5CC[C@H]4CN5)n2)CCN(c2cc(O)cc4cccc(Br)c24)C3)CC1 [Example 20]	8.52
11) CN1CCC[C@H]1COc1nc(N2CC3CCC(C2)N3)c2ccc(-c3cc(O)cc4ccccc34)c(F)c2n1 [Example 16]	7.99
12) Ic1cccc2cccc(N3CCc4c(nc(OCC5(CN6CCOCC6)CC5)nc4N4CC5CCC(C4)N5)C3)c12 [Example 25]	7.40
13) CN(C)CC1(COc2nc3c(c(N4CC5CCC(C4)N5)n2)CCN(c2cc(O)cc4cccc(Br)c24)C3)CC1 [Example 1]	9.10
14) C#Cc1cccc2cc(O)cc(C(=O)N3Cc4nc(OCC5(CN6CCOCC6)CC5)nc(N5CC6CCC(C5)N6)c4C3)c12 [Example 10]	8.82

----------
# System: KRAS-G12D mutant cell line (A-427)
# run-description: Growth inhibition activity on KRAS-G12D mutant cell line (A-427), CellTiter-Glo 3D
# Type: cell-based
# stated-conditions: Homo sapiens, 72 h, A-427 cells, 3-day culture with compound, read-out: A427 CTX IC50
pIC50: −log10 of the molar value.
Where pIC50 equals or exceeds 6, the correct label is Met; where it does not, the label is Not met.

1) O=C(c1cc(O)cc2cccc(I)c12)N1Cc2nc(OCC3(CN4CCOCC4)CC3)nc(N3CC4CCC(C3)N4)c2C1	Not met
2) O=C(c1cc(O)cc2cccc(I)c12)N1Cc2nc(OCC3(CN4CC[C@@H](F)C4)CC3)nc(N3CC4CCC(C3)N4)c2C1	Not met
3) CCc1cc2c(N3CC4CCC(C3)N4)nc(OCC3(CN(C)C)CC3)nc2c(F)c1-c1cc(O)cc2ccccc12	Not met
4) CN(C)CC1(COc2nc3c(c(N4CC5CCC(C4)N5)n2)CCN(c2cc(O)cc4cccc(I)c24)C3)CC1	Met
5) CN(C)CC1(COc2nc3c(c(N4CC5CCC(C4)N5)n2)CCN(c2nc(N)cc4cccc(Br)c24)C3)CC1	Not met
6) CN(C)CC1(COc2nc3c(c(N4CC5CCC(C4)N5)n2)CCN(c2cc(O)cc4cccc(Br)c24)C3)CC1(F)F (stereo not shown)	Met

----------
# Test system: KRAS-G12D mutant cell line (A-427)
# run-description: Growth inhibition activity on KRAS-G12D mutant cell line (A-427), CellTiter-Glo 3D
# Format: cell-based
# stated-conditions: Homo sapiens, 72 h, A-427 cells, 3-day culture with compound, read-out: A427 CTX IC50
attribute-measured: IC50 (µM)

1. CN(C)CC1(COc2nc(N3CC4CCC(C3)N4)c3cc(Cl)c(-c4cc(O)cc5ccccc45)c(F)c3n2)CC1	1.27
2. CN(C)CC1(COc2nc3c(c(N4CC5CCC(C4)N5)n2)CCN(c2cc(O)cc4cccc(Br)c24)C3)CC1	1.17
3. C#Cc1cccc2cc(O)cc(C3Cc4nc(OCC5(CN(C)C)CC5)nc(N5CC6CCC(C5)N6)c4CO3)c12 (stereo not shown)	1.47
4. Oc1cc(N2CCc3c(nc(OCC4(CN5CCOCC5)CC4)nc3N3C[C@@H]4CC[C@H]3CN4)C2)c2c(Br)cccc2c1	0.82
